experiment: Pharmacokinetics in dogs; format: in vivo; conditions: male, dog, plasma; beagle dogs, IV bolus at 1 mg/kg and PO at 5 mg/kg
Quantity: half-life (h)

CC(=O)Nc1nc(C)c(-c2cc3c(c(N4CCOCC4)n2)C(=O)N([C@@H](C)C2CC2)C3)s1; 9.1
CC(=O)Nc1nc(C)c(-c2cc3c(c(NS(C)(=O)=O)n2)C(=O)N([C@@H](C)C2CC2)C3)s1; 7.2

###

Assay: Pharmacokinetics in mice (plasma and brain concentrations)
Type: in vivo, CD-1 mice
Details: CD-1, brain; male CD1 mouse, oral gavage 20 mg/kg, 2 h; read-out: Brain
Procedure: The dosing solution was administered to male CD-1 mice via oral gavage (PO) at 20 mg/kg. Blood and brain tissue samples were collected at 0.5, 2 and 8 hours post-dose. The blood samples were then centrifuged for 5 minutes in a centrifuge refrigerated at 4° C. The brain samples after blood removal were homogenized in water.
Quantity: concentration at 2 h (ng/g)
Respond numerically; units are ng/g and should not be typed.

Can you share its concentration at 2 h? I mean this molecule: "CC(=O)Nc1nc(C)c(-c2cc3c(c(N4CCOCC4)n2)C(=O)N([C@@H](C)C2CC2)C3)s1"
473

Value source: patent US11542262B2
